These entries and their values trace back to patent US12714696B2.

Assay: Pharmacokinetics after repeated oral administration of 35 μg/kg of fluralaner in dogs after feeding
Assay type: in vivo, beagle dogs
Details: beagle, dog, plasma, po, 35 μg/kg, 96 h; oral 35 μg/kg Days 0-3, dogs, n=6; read-out: fluralaner concentration levels, Maximum

| Molecule | concentration at 96 h / ng/mL |
| --- | --- |
| Cc1cc(C2=NOC(c3cc(Cl)cc(Cl)c3)(C(F)(F)F)C2)ccc1C(=O)NCC(=O)NCC(F)(F)F (stereo not shown) | 92.4 |

----------
Assay: Pharmacokinetics after repeated oral administration of 250 μg/kg and 35 μg/kg of fluralaner in dogs after feeding
Assay type: in vivo, beagle dogs
Conditions: beagle, dog, plasma, po, 72 h; oral 250 μg/kg Days 0-3, 35 μg/kg Days 4-9, 600 μg/kg Day 11, dogs; read-out: fluralaner concentration levels, individual animal

| Compound | concentration at 72 h, µg/mL |
| --- | --- |
| Cc1cc(C2=NOC(c3cc(Cl)cc(Cl)c3)(C(F)(F)F)C2)ccc1C(=O)NCC(=O)NCC(F)(F)F (stereo not shown) | 0.366 |

----------
Assay: Pharmacokinetics after repeated oral administration of 250 μg/kg and 35 μg/kg of fluralaner in dogs after feeding
Format: in vivo, beagle dogs
Conditions: beagle, dog, plasma, po, 624 h; oral 250/35/600 μg/kg regimen, dogs, n=6; read-out: fluralaner concentration levels, Minimum

| Compound | concentration at 624 h |
| --- | --- |
| Cc1cc(C2=NOC(c3cc(Cl)cc(Cl)c3)(C(F)(F)F)C2)ccc1C(=O)NCC(=O)NCC(F)(F)F (stereo not shown) [fluralaner, Fluralaner] | 182 ng/mL |

----------
Experiment: Pharmacokinetics after repeated oral administration of 35 μg/kg of fluralaner in dogs after feeding
Type: in vivo, beagle dogs
Details: beagle, dog, plasma, po, 35 μg/kg, 576 h; oral 35 μg/kg Days 0-3, dogs, n=6; read-out: fluralaner concentration levels, Minimum
Readout label: concentration at 576 h (ng/mL)

| Compound | Unit annotation | Numeric readout |
| --- | --- | --- |
| Cc1cc(C2=NOC(c3cc(Cl)cc(Cl)c3)(C(F)(F)F)C2)ccc1C(=O)NCC(=O)NCC(F)(F)F (stereo not shown) | ng/mL | 13.3 |

----------
Experiment: Pharmacokinetics after repeated oral administration of 35 μg/kg of fluralaner in dogs after feeding
Assay type: in vivo, beagle dogs
Conditions: beagle, dog, plasma, po, 35 ug/kg, oral 35 μg/kg Days 0-3, dogs, n=6; read-out: AUC 0-t, GeoMean
Procedure: The first objective of the study was to obtain the pharmacokinetic parameters after repeated oral administration of 35 μg/kg of fluralaner in dogs, 30 to 35 minutes after feeding. […] On Days 0, 1, 2 and 3, all dogs assigned to group 2 received the Investigational Veterinary Product. […] The quantity of Investigational Veterinary Product and control product administered was calculated according to the dog's individual body weight measured on Day −1. […]

| Molecule | AUC(0-t) [ng·h/mL] |
| --- | --- |
| Cc1cc(C2=NOC(c3cc(Cl)cc(Cl)c3)(C(F)(F)F)C2)ccc1C(=O)NCC(=O)NCC(F)(F)F (stereo not shown) [fluralaner, Fluralaner] | 23900 |

----------
Experiment: Pharmacokinetics after repeated oral administration of 35 μg/kg of fluralaner in dogs after feeding
Assay type: in vivo, beagle dogs
Conditions: beagle, dog, plasma, po, 35 μg/kg, 480 h; oral 35 μg/kg Days 0-3, dogs, n=6; read-out: fluralaner concentration levels, Mean
Readout label: concentration at 480 h

| Molecule | Result |
| --- | --- |
| Cc1cc(C2=NOC(c3cc(Cl)cc(Cl)c3)(C(F)(F)F)C2)ccc1C(=O)NCC(=O)NCC(F)(F)F (stereo not shown) | 22.4 ng/mL |
